Reference source for all entries: patent US5763443A

# IC50 per record follows
- Test system: multi-drug resistant (MDR) lung carcinoma cell line H69/LX4
- Assay Explanation: cells
- Cond: Homo sapiens, read-out: IC 50 H69/Lx4 VB 25 ng/ml
- Procedure: The riminophenazines of the above formula (I), contain an imino group. […] The potency of compounds of the above general formula, as inhibitors of multi-drug resistance, was assessed by sensitization of a P-glycoprotein positive cell line to drugs associated with this form of resistance. A human small cell lung cancer cell line H 69/P as well as a multi-drug resistance (MDR) sub-line H69/LX4 were used. […]
Observable: IC50 (µg/mL)

smiles_record=CCN(CC)CCCN=c1cc2n(-c3ccc(Cl)c(Cl)c3)c3ccccc3nc-2cc1Nc1ccc(Cl)c(Cl)c1 observed=0.378
smiles_record=CC1(C)CC(N=c2cc3n(-c4ccc(C(F)(F)F)cc4C(F)(F)F)c4ccccc4nc-3cc2Nc2ccc(C(F)(F)F)cc2C(F)(F)F)CC(C)(C)N1 observed=0.399
smiles_record=CC1(C)CC(N=c2cc3n(-c4cccc(Cl)c4)c4ccccc4nc-3cc2Nc2cccc(Cl)c2)CC(C)(C)N1 observed=0.029

---

- Tested on: multi-drug resistant (MDR) lung carcinoma cell line H69/LX4
- Assay Explanation: cells
- Cond: Homo sapiens, read-out: IC 50 H69/Lx4 VB 25 ng/ml
Just a reminder that ties go to condition not met: only IC50 strictly below 0.3 µg/mL counts as condition met.

compound=CC1(C)CC(N=c2cc3n(-c4ccccc4Cl)c4ccccc4nc-3cc2Nc2ccccc2Cl)CC(C)(C)N1 tested_system="multi-drug resistant (MDR) lung carcinoma cell line H69/LX4" group="condition not met"
compound="CC(C)N=c1cc2n(-c3ccc(Cl)cc3)c3ccccc3nc-2cc1Nc1ccc(Cl)cc1 [Compound B663, reference compound]" tested_system="multi-drug resistant (MDR) lung carcinoma cell line H69/LX4" group="condition not met"
compound=CC1(C)CC(N=c2cc3n(-c4ccc(Cl)cc4)c4ccccc4nc-3cc2Nc2ccc(Cl)cc2)CC(C)(C)N1 tested_system="multi-drug resistant (MDR) lung carcinoma cell line H69/LX4" group="condition met"
compound=CC1(C)CC(N=c2cc3n(-c4cccc(C(F)(F)F)c4)c4ccccc4nc-3cc2Nc2cccc(C(F)(F)F)c2)CC(C)(C)N1 tested_system="multi-drug resistant (MDR) lung carcinoma cell line H69/LX4" group="condition met"
compound=COc1ccc(Nc2cc3nc4ccccc4n(-c4ccc(OC)cc4)c-3cc2=NC2CC(C)(C)NC(C)(C)C2)cc1 tested_system="multi-drug resistant (MDR) lung carcinoma cell line H69/LX4" group="condition not met"
compound=c1ccc(Nc2cc3nc4ccccc4n(-c4ccccc4)c-3cc2=NC2CCCCC2)cc1 tested_system="multi-drug resistant (MDR) lung carcinoma cell line H69/LX4" group="condition met"
compound=CC1(C)CC(N=c2cc3n(-c4ccc(F)c(Cl)c4)c4ccccc4nc-3cc2Nc2ccc(F)c(Cl)c2)CC(C)(C)N1 tested_system="multi-drug resistant (MDR) lung carcinoma cell line H69/LX4" group="condition met"

---

- Tested on: multi-drug resistant (MDR) lung carcinoma cell line H69/LX4
- Assay Explanation: cells
- Cond: Homo sapiens, read-out: IC 50 H69/Lx4 VB 25 ng/ml
- Procedure: The riminophenazines of the above formula (I), contain an imino group. […] The potency of compounds of the above general formula, as inhibitors of multi-drug resistance, was assessed by sensitization of a P-glycoprotein positive cell line to drugs associated with this form of resistance. A human small cell lung cancer cell line H 69/P as well as a multi-drug resistance (MDR) sub-line H69/LX4 were used. […]
This section presents molecules with their documented IC50 values.
Observable: IC50

molecule="CC1(C)CC(N=c2cc3n(-c4cc(Cl)cc(Cl)c4)c4ccccc4nc-3cc2Nc2cc(Cl)cc(Cl)c2)CC(C)(C)N1 [Compound B4121]" observed="0.162 µg/mL"
molecule="CC1(C)CC(N=c2cc3n(-c4cccc(C(F)(F)F)c4)c4ccc(Cl)cc4nc-3cc2Nc2cccc(C(F)(F)F)c2)CC(C)(C)N1 [Compound B4127]" observed="0.454 µg/mL"
molecule="CC1(C)CC(N=c2cc3n(-c4ccc(C(F)(F)F)cc4)c4ccccc4nc-3cc2Nc2ccc(C(F)(F)F)cc2)CC(C)(C)N1 [Compound B4103]" observed="0.145 µg/mL"
molecule="Cc1ccc(Nc2cc3nc4ccccc4n(-c4ccc(C)cc4)c-3cc2=NC2CC(C)(C)NC(C)(C)C2)cc1 [Compound B4070]" observed="0.2 µg/mL"
molecule="CC1(C)CC(N=c2cc3n(-c4ccc(Cl)cc4)c4ccc(Cl)cc4nc-3cc2Nc2ccc(Cl)cc2)CC(C)(C)N1 [Compound B4090]" observed="0.266 µg/mL"
molecule="CC1(C)CC(N=c2cc3n(-c4cccc(Cl)c4)c4ccc(Cl)cc4nc-3cc2Nc2cccc(Cl)c2)CC(C)(C)N1 [Compound B4123]" observed="0.251 µg/mL"
molecule="CC(C)c1ccc(Nc2cc3nc4ccccc4n(-c4ccc(C(C)C)cc4)c-3cc2=NC2CC(C)(C)NC(C)(C)C2)cc1 [Compound B4158]" observed="0.124 µg/mL"
molecule="CC1(C)CC(N=c2cc3n(-c4ccccc4)c4ccc(Cl)cc4nc-3cc2Nc2ccccc2)CC(C)(C)N1 [Compound B4019]" observed="0.488 µg/mL"
molecule="CC1(C)CC(N=c2cc3n(-c4ccc(Cl)cc4Cl)c4ccccc4nc-3cc2Nc2ccc(Cl)cc2Cl)CC(C)(C)N1 [Compound B4128]" observed="0.434 µg/mL"
molecule="CC1(C)CC(N=c2cc3n(-c4ccc(Cl)c(C(F)(F)F)c4)c4ccccc4nc-3cc2Nc2ccc(Cl)c(C(F)(F)F)c2)CC(C)(C)N1 [Compound B4163]" observed="0.281 µg/mL"
molecule="CC1(C)CC(N=c2cc3n(-c4ccccc4)c4ccccc4nc-3cc2Nc2ccccc2)CC(C)(C)N1 [Compound B3962]" observed="0.262 µg/mL"
molecule="CC1(C)CC(N=c2cc3n(-c4cc(Cl)c(Cl)c(Cl)c4)c4ccccc4nc-3cc2Nc2cc(Cl)c(Cl)c(Cl)c2)CC(C)(C)N1 [Compound B4169]" observed="0.213 µg/mL"
